# system.tested: UniProtKB P08183
# Sequence (P08183 whole entry): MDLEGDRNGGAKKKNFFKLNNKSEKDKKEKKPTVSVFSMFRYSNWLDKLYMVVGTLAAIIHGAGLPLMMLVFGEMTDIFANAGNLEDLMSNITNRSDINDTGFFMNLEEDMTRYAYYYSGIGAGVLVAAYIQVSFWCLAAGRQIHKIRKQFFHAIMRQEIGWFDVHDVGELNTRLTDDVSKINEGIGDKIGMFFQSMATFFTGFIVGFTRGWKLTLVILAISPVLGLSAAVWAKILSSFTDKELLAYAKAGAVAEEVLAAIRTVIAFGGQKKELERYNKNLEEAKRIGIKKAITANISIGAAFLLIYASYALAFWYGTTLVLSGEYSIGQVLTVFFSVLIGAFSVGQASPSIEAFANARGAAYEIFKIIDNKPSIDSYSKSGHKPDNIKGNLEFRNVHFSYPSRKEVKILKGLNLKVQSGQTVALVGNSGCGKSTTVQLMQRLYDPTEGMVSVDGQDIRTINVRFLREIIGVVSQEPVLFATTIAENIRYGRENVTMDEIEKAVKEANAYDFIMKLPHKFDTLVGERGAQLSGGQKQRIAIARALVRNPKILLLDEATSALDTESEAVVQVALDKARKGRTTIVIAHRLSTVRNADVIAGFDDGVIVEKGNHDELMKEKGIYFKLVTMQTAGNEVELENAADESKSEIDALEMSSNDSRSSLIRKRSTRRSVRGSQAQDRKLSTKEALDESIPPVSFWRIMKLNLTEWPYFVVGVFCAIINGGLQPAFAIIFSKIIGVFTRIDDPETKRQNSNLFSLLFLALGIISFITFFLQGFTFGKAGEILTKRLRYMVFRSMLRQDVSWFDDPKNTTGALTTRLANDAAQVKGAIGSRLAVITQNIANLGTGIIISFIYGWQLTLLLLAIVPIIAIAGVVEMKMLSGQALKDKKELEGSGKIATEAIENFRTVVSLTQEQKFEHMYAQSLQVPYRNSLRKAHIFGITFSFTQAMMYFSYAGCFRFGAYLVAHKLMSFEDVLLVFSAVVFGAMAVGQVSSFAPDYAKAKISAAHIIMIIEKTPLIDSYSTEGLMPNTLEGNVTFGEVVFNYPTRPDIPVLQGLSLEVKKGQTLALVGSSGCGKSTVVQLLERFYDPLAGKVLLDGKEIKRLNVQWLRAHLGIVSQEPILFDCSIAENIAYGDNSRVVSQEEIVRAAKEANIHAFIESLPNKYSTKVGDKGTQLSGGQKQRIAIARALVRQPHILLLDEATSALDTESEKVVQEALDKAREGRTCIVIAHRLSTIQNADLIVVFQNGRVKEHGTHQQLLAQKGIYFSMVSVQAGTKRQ
# procedure.text: Modulation of human P-gp transfected in mouse L5178Y cells assessed as change in Rhodamine-123 efflux by measuring fluorescence activity ratio at 20 uM pretreated for 10 mins followed by Rhodamine-123 challenge for 20 mins by flow cytometry relative to parental mouse L5178Y cells
# Type: cell-based
# condition.label: 0.5 h, time 30 min
experimental.readout: Ratio

# count of solved cases: 2
1. C=C1CC[C@@H]2[C@](C)(COC(C)=O)[C@H](OC(C)=O)CC[C@@]2(C)[C@@H]1C[C@H](NNC(=S)Nc1ccc([N+](=O)[O-])cc1)C1=CCOC1=O | 51.95
2. C=C1CC[C@@H]2[C@](C)(COC(C)=O)[C@H](OC(C)=O)CC[C@@]2(C)[C@@H]1C[C@H](NNC(=S)NCc1ccccc1)C1=CCOC1=O | 57.14

1: C=C1CC[C@@H]2[C@](C)(CO)[C@H](O)CC[C@@]2(C)[C@@H]1C/C=C1/C(=O)OC[C@H]1O [ANDROGRAPHOLIDE]
2: C=C1CC[C@@H]2[C@](C)(COC(C)=O)[C@H](OC(C)=O)CC[C@@]2(C)[C@@H]1C[C@H](NNC(=S)Nc1ccc(C)cc1)C1=CCOC1=O
3: C=C1CC[C@@H]2[C@](C)(COC(C)=O)[C@H](OC(C)=O)CC[C@@]2(C)[C@@H]1C[C@H](NNC(=S)Nc1ccccc1C)C1=CCOC1=O
Enquiry: Returns the items ordered by Ratio, from maximum to minimum. Provide the ranking by listing each label in its place in the requested order.
Return: 2, 3, 1

---

# procedure.text: Resistance ratio of IC50 for antiproliferative activity against multidrug resistant mouse L5178Y cells transfected with human ABCB1 to IC50 for antiproliferative activity against mouse L5178Y cells
# Format: functional
Catalogue of Ratio readings, one per entry.
Answer using only a numeral; do not append any unit.

# count of solved cases: 2
1. C=C1CC[C@@H]2[C@](C)(COC(C)=O)[C@H](OC(C)=O)CC[C@@]2(C)[C@@H]1C[C@H](NNc1ccc(Br)cn1)C1=CCOC1=O | 0.58
2. C=C1CC[C@@H]2[C@](C)(COC(C)=O)[C@H](OC(C)=O)CC[C@@]2(C)[C@@H]1C[C@H](NNC(=S)N(C)C)C1=CCOC1=O | 1.4

API: the following record is the query input.
Enquiry: Return Ratio for the following molecule: C=C1CC[C@@H]2[C@](C)(COC(C)=O)[C@H](OC(C)=O)CC[C@@]2(C)[C@@H]1C[C@H](NNC(=S)Nc1ccccc1F)C1=CCOC1=O
Return: 1.33

---

# Tested on: L5178Y
# procedure.text: Antiproliferative activity against mouse L5178Y cells assessed as reduction in cell viability incubated for 72 hrs by MTT assay
# Assay type: functional, cell-based
experimental.readout: IC50 (µM)
Write the answer as a number in µM, unit excluded.

1. C=C1CC[C@@H]2[C@](C)(COC(C)=O)[C@H](OC(C)=O)CC[C@@]2(C)[C@@H]1C[C@H](NNC(=S)Nc1cccc2ccccc12)C1=CCOC1=O | 52.9
2. COc1cccc2c1C(=O)c1c(O)c3c(c(O)c1C2=O)C[C@@](O)(C(=O)CO)C[C@@H]3O[C@H]1C[C@H](N)[C@H](O)[C@H](C)O1 | 0.07
3. C=C1CC[C@@H]2[C@](C)(COC(C)=O)[C@H](OC(C)=O)CC[C@@]2(C)[C@@H]1C[C@H](NNC(=S)Nc1ccccc1C)C1=CCOC1=O | 56.9

Enquiry: Return IC50 for the following compound: C=C1CC[C@@H]2[C@](C)(COC(C)=O)[C@H](OC(C)=O)CC[C@@]2(C)[C@@H]1C[C@H](NNC(=S)Nc1ccc([N+](=O)[O-])cc1)C1=CCOC1=O
Return: 16.1

Enquiry: Return IC50 for the following compound: C=C1CC[C@@H]2[C@](C)(COC(C)=O)[C@H](OC(C)=O)CC[C@@]2(C)[C@@H]1C[C@H](NNC(=S)NC1CCCCC1)C1=CCOC1=O
Return: 75.7

Enquiry: Return IC50 for the following compound: C=C1CC[C@@H]2[C@](C)(COC(C)=O)[C@H](OC(C)=O)CC[C@@]2(C)[C@@H]1C/C=C1/C(=O)OC[C@H]1OC(C)=O
Return: 13.3
